Provide the recorded polymerase ribozyme fitness (log ratio) for the entries that follow.
B1: TPR t1 (parent)
chain: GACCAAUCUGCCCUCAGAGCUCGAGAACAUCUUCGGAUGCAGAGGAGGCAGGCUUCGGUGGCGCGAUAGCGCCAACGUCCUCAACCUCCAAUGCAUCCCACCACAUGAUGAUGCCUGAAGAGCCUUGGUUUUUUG

variants of: B1; assay: polymerase ribozyme fitness, log enrichment relative to wild type (log ratio); higher = more active; in vitro selection for triplet polymerase activity
Answers are plain numbers.

Study these solved cases before continuing.
mutant.code	polymerase ribozyme fitness (log ratio)
U7A C64A	-4.63
A2U G51A C123A	-4.9
G42U G77U	-1.86
C88A A111U	-4.33
A5C G48A	-1.85

Parameters: items (list). Returns: polymerase ribozyme fitness (log ratio) for each item.
1. U59G C101U U131G U133A
2. C12A C64U C72U
3. A16U G17A G117A
4. C115U U126G

1: -0.675; 2: -1.01; 3: -2.04; 4: -3.36

Parameters: items (list). Returns: polymerase ribozyme fitness (log ratio) for each item.
1. C72A C115A
2. C3G C12G

-0.416
-0.885
